- System: human P2X2/3 receptors (Homo sapiens, UniProt P56373+Q9UBL9)
- Construct: expressed in transfected cells; host or cells: human astrocytoma 1321N1 (1312N1 [sic])
- Experiment summary: Intracellular calcium measurement, antagonist activity at human P2X2/3 receptors (hP2X23 1321N1), Fluo8
- Type: cell-based
- Run conditions: ratio of column 4) hP2X2/3 to column 3) hP2X3, 1321N1
- Protocol: 3) And 4) Intracellular Calcium Measurement to Compare Antagonist Activity at Human P2X3 Receptors (hP2X3 1321N1) and at Human P2X2/3 Receptors (hP2X23 1321N1) The comparison of antagonistic activity at the P2X3 versus the P2X2/3 receptor of the compounds of the invention were performed by use of recombinant cell lines. […] The cytoplasmatic calcium transient is detected via the calcium sensitive dye Fluo8. The strength of Fluo8 fluorescence signal corresponds to the level of receptor activation. […]
Reported values of hP2X23/hP2X3* Selectivity (1321N1) for individual entries

COCCN1Cc2c(n(CC(=O)Nc3ccc(F)cn3)c3cc(CC(C)C)nn3c2=O)C1=O	211
CCc1cc2n(CC(=O)Nc3ccc(F)cn3)c3c(c(=O)n2n1)CN(C[C@@H]1COCCN1CCC(F)(F)F)C3=O	142
CC(C)N1Cc2c(n(CC(=O)Nc3ccc(F)cn3)c3cc(C(F)(F)F)nn3c2=O)C1=O	>116

Give reported hP2X23/hP2X3* Selectivity (1321N1) for CC(C)N1Cc2c(n(CC(=O)Nc3ccc(F)cn3)c3cc(C(C)(C)C)nn3c2=O)C1=O (human P2X2/3 receptors (Homo sapiens, UniProt P56373+Q9UBL9))
138

----------
Catalogue of compounds with associated IC50
- System: human P2X3 receptor (Homo sapiens, UniProt P56373)
- Sequence (P56373 1-397): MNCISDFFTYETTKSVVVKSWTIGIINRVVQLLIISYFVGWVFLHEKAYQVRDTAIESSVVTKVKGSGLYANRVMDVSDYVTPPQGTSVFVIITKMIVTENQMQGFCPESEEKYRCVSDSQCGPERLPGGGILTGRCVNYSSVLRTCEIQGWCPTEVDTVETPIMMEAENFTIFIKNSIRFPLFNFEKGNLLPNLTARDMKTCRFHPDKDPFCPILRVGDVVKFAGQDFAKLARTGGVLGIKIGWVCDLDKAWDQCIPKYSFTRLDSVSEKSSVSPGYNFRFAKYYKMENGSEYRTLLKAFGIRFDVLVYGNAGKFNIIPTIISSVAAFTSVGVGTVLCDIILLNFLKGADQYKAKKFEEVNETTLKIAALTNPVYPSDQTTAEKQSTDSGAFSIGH
- Experiment summary: Intracellular calcium measurement to assess antagonist activity at human P2X3 receptors (hP2X3 FLIPR)
- Assay type: cell-based
- Set-up: expressed in transfected cells; host or cells: human astrocytoma 1321N1 (1312N1 [sic])
- Run conditions: head prints (1321N1); read-out: 1) hP2X3 IC50 [nM] (1321N1)
Number first, unit second.

Consider the compound CC(C)[C@H](C)N1Cc2c(n(CC(=O)Nc3ccc(F)cn3)c3cc(C(C)(C)C)nn3c2=O)C1=O . State its measured IC50.
24 nM

Return the recorded IC50 value; entry: COC[C@H](C)N1Cc2c(n(CC(=O)Nc3ccc(F)cn3)c3cc(C4CCOCC4)nn3c2=O)C1=O
20 nM

For the compound CC(C)(C)c1cc2n(CC(=O)Nc3ccc(F)cn3)c3c(c(=O)n2n1)CN(C1CCOCC1)C3=O , report IC50.
276 nM

Quote IC50 reported for Cc1cc2n(CC(=O)Nc3ccc(F)cn3)c3c(c(=O)n2n1)CN([C@H](C)C1CC1)C3=O please.
104 nM
